- MEASURED ON: Discoidin domain-containing receptor 2 (Homo sapiens, UniProt Q16832)
- Sequence (Q16832 whole entry): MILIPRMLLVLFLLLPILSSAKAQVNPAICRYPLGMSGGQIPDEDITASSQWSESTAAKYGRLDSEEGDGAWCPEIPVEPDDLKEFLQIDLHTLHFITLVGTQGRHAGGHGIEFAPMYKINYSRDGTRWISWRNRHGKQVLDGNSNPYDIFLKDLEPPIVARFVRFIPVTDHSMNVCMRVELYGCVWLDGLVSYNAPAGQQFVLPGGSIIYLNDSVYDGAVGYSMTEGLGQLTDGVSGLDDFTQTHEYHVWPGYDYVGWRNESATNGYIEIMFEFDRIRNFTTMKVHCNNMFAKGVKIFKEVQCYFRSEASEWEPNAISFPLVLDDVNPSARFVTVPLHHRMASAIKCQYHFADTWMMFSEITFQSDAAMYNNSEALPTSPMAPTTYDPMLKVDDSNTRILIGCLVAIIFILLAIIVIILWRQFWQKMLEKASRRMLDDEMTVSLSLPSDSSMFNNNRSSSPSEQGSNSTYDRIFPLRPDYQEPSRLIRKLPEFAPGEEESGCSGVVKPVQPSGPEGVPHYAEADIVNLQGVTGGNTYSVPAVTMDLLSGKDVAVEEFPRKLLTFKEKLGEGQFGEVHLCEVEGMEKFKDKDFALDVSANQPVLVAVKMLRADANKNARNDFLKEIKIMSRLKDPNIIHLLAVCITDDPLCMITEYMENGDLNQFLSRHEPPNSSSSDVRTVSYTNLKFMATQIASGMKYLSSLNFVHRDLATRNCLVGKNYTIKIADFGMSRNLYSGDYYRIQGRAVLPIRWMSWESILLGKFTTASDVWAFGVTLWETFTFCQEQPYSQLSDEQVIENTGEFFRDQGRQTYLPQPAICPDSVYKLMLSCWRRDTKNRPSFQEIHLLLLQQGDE
pIC50: −log10 of the molar value.
VALUE KIND: pIC50

Worked examples, 3 compounds total:
COMPOUND	MEASURED NUMBER
Cc1nc(Nc2ncc(C(=O)Nc3c(C)cccc3Cl)s2)cc(C2CCN(C(=O)Oc3ccccc3)C2)n1 (stereo not given)	7.22
C=CCOC(=O)N1CCC(c2cc(Nc3ncc(C(=O)Nc4c(C)cccc4Cl)s3)nc(C)n2)C1 (stereo not given)	7.77
CCC(=O)N1CCC(Nc2cc(Nc3ncc(C(=O)Nc4c(C)cccc4Cl)s3)nc(C)n2)C1 (stereo not given)	7.62

A. C=CC(=O)N1CCN(c2cc(Nc3ncc(C(=O)Nc4c(C)cccc4Cl)s3)nc(C)n2)CC1
B. COC(=O)N1CCC(c2cc(Nc3ncc(C(=O)Nc4c(C)cccc4Cl)s3)nc(C)n2)C1 (stereo not given)
Lab note: record which item had the higher pIC50, A or B . Select an item and report its label.
A

I. Cc1nc(Nc2ncc(C(=O)Nc3c(C)cccc3Cl)s2)cc(C2CCN(C(=O)OCc3ccccc3)C2)n1 (stereo not given)
II. C/C=C/C(=O)N1CCN(c2cc(Nc3ncc(C(=O)Nc4c(C)cccc4Cl)s3)nc(C)n2)CC1
III. Cc1nc(Nc2ncc(C(=O)Nc3c(C)cccc3Cl)s2)cc(N2CCN(C(=O)OCC(C)C)CC2)n1
Please put the entries in order of rising pIC50. Give the labels in the order specified.
I, III, II

----------
- MEASURED ON: Epithelial discoidin domain-containing receptor 1 (Homo sapiens, UniProt Q08345)
- Sequence (Q08345 whole entry, the tested form may be a part): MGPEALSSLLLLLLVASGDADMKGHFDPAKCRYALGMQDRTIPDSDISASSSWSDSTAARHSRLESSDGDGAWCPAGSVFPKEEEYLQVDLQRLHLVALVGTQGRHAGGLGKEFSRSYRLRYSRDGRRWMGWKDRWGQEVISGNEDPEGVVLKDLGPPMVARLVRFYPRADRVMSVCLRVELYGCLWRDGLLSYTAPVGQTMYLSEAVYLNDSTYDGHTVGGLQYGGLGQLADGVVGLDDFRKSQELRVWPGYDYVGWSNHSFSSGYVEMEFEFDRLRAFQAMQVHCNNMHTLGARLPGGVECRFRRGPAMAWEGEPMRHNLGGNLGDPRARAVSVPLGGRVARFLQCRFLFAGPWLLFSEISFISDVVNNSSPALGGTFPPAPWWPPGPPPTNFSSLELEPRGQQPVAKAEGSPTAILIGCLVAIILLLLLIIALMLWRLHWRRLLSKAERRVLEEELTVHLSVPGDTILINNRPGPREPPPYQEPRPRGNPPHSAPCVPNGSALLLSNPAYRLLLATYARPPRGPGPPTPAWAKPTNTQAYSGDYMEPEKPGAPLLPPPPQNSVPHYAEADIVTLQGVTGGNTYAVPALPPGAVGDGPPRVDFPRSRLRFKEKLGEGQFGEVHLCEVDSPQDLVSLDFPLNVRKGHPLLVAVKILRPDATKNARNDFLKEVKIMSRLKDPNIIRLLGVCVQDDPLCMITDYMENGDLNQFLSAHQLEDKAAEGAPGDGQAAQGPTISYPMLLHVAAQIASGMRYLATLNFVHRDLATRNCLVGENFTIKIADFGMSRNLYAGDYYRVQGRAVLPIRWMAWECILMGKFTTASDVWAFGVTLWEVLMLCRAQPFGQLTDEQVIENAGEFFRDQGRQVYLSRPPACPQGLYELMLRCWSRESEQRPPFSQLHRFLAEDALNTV
pIC50: −log10 of the molar value.
VALUE KIND: pIC50

COMPOUND	pIC50
Cc1nc(Nc2ncc(C(=O)Nc3c(C)cccc3Cl)s2)cc(N2CCN(C(=O)OCCN(C)C)CC2)n1	8.59

A. Cc1nc(Nc2ncc(C(=O)Nc3c(C)cccc3Cl)s2)cc(N2CCN(C(=O)OCC(C)C)CC2)n1
B. CCOC(=O)N1CCN(c2cc(Nc3ncc(C(=O)Nc4c(C)cccc4Cl)s3)nc(C)n2)CC1
Exercise: compare A and B ; which one has the greater pIC50? Kindly give the label for the entry you pick.
B

a. Cc1nc(Nc2ncc(C(=O)Nc3c(C)cccc3Cl)s2)cc(N2CCN(C(=O)OC(C)C)CC2)n1
b. CCCCOC(=O)N1CCC(c2cc(Nc3ncc(C(=O)Nc4c(C)cccc4Cl)s3)nc(C)n2)C1 (centres undefined)
Hi team, can someone confirm which has the larger pIC50: a or b ? Thanks. Identify your pick by its label.
a

P. Cc1nc(Nc2ncc(C(=O)Nc3c(C)cccc3Cl)s2)cc(C2CCN(C(=O)OCc3ccccc3)C2)n1 (centres undefined)
Q. C=CCOC(=O)N1CCN(c2cc(Nc3ncc(C(=O)Nc4c(C)cccc4Cl)s3)nc(C)n2)CC1
Of P and Q , which one carries the higher reported pIC50? Response format: the label of the selected entry.
Q
(Q: 8.17, P: 7.66)

I. COC(=O)N1CCC(c2cc(Nc3ncc(C(=O)Nc4c(C)cccc4Cl)s3)nc(C)n2)C1 (centres undefined)
II. CCOC(=O)N1CCC(c2cc(Nc3ncc(C(=O)Nc4c(C)cccc4Cl)s3)nc(C)n2)C1 (centres undefined)
III. Cc1nc(Nc2ncc(C(=O)Nc3c(C)cccc3Cl)s2)cc(N2CCN(C(=O)OCc3ccccc3)CC2)n1
Ascending by pIC50, please. Answer by listing the labels in the order asked for.
III, II, I
(III: 7.65, II: 8.02, I: 8.28)
